# Tested on: LAMA-84
# test-name: cell viability (% survival relative to DMSO control, bortezomib = 0%); higher = less cytotoxic
# experimental-parameters: 1000 nM; 72 h
Recorded cell viability values for a group of compounds are listed next.
Please state the figure in %; there is no need to write the unit.

# annotated cases, reported cell viability shown
N#Cc1ccnc(N2C(=O)CC[C@H]2C(=O)N(c2cncc(F)c2)C(C(=O)NC2CC(F)(F)C2)c2ccccc2Cl)c1 (some centres undefined)	107
O=C1O[C@H]([C@@H](O)CO)C(O)=C1O [Vitamin C (ascorbate)]	101

Noted for Oc1ccc(Nc2nc(-c3ccc(Cl)cc3)cs2)cc1 : its cell viability reads 96.4

Noted for CCN(CC)CCCC(C)Nc1ccnc2cc(Cl)ccc12 (centres undefined) : its cell viability reads 101

Noted for COc1ccc2c(C(=S)N(C)CC(=O)O)cccc2c1C(F)(F)F : its cell viability reads 95.6

Noted for NC(=O)c1cccc(-c2cccc(OC(=O)NC3CCCCC3)c2)c1 : its cell viability reads 98.3

Noted for COc1ccc(CNC(=O)Nc2ncc([N+](=O)[O-])s2)cc1 : its cell viability reads 104

Noted for CCOC(=O)c1ccc(-c2ccc(OC(=O)N(C)Cc3cccc(-c4ccncc4)c3)cc2)cc1 : its cell viability reads 114

Noted for Cc1c(-c2ccc(-c3ccccc3F)cc2)nc2ccc(F)cc2c1C(=O)O : its cell viability reads 102

Where do these numbers come from? They come from the supplement of paper PMC8671470.
